Data provenance is the supplement of paper PMC12042874.

- protocolDetails: amyloid nucleation score (Sup35N fusion, yeast selection) (log enrichment); library NNK1; higher = more nucleation; inactive = no reads after selection;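 also: zero at mode of non-aggregating sequences after 7 days selection at 30°C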
Catalogue of substances with associated amyloid nucleation score
Just the number, please, no unit attached.

For record FHEDKIS the listed amyloid nucleation score is 1.34

Form field amyloid nucleation score, entry QASSGIDVNHFYAVNLTSML : 0.487

====

// values below are reported amyloid nucleation score
- protocolDetails: amyloid nucleation score (Sup35N fusion, yeast selection) (log enrichment); library NNK2; higher = more nucleation; inactive = no reads after selection
// no unit string in output, number only

* VGGSDSLNFIAIGKTFCVQV | 0.186
* FDCGGCKNMGF | -1.74
* QGRRISKLC | -1.39
* IKTVIRCLDLVSFHRYGIGV | -0.401
* CRFALSMYNWVLYNRNFQLI | -0.363
* PLVAMGMIINNI | -1.74
* VYSHILDYFACISYAITLVD | 2.91
* YIGSVIIWRRKVSRFHLGEA | 0.102

Sure, the documented amyloid nucleation score for CVNYYVYANHRRISYWW is -0.337

Sample VHCREWEIIRMINLSRKQRV ; amyloid nucleation score observed: -0.419

Per the records, this substance ( SSSEFDPSSGSCLYT ) has amyloid nucleation score equal to -0.847

Recorded result, KYCMRDDSSSLMYLWGCTRG , amyloid nucleation score: -0.168

SGILLLRSLFGWPISERGHN has a reported amyloid nucleation score of 0.167

Form field amyloid nucleation score, entry SDPALVYRITYVIQ : -0.008

====

- protocolDetails: amyloid nucleation score (Sup35N fusion, yeast selection) (log enrichment); library NNK2; higher = more nucleation; inactive = no reads after selection
Think of 0.09 as a floor: if amyloid nucleation score stands on it or above, it is 1; beneath it, 0.

Please review the following examples before continuing.
- CNSQVVWFFRI: 1
- KRMKRLVCGTRVDMYRGSLW: 0
- FRVIWVVLVACQVSFHVRFV: 0

## Task API: above_or_equal(metric=amyloid nucleation score, cutoff=0.09) for item LIYIICVSLFSRVVMVIANF
## Result 0

## Task Does the reported amyloid nucleation score for CLYMRFAFHLPELRALTKSP fall at or above the 0.09 mark?
## Result 1

## Task Check the entry RNRRVWM : does amyloid nucleation score equal or exceed 0.09?
## Result 0

## Task Say whether HFMRLYSKVLILLAEKRTAP shows amyloid nucleation score of 0.09 or more.
## Result 0

## Task Tell me whether amyloid nucleation score is at least 0.09 here: TSRKGNSSHL
## Result 0

## Task Threshold query (amyloid nucleation score >= 0.09) on PNVCKLYMWQFGTLNQAPQR
## Result 1

====

- protocolDetails: amyloid nucleation score (Sup35N fusion, yeast selection) (log enrichment); library NNK2; higher = more nucleation; inactive = no reads after selection
// classify(record): look up amyloid nucleation score in ranges low = under -0.05, medium = from -0.05 up to 1, high = 1 and over

Solved entries:
• WLDLTYFFSRLGVDVISLQ = low
• IVAGFNSKWLSTDFNRTENR = low
• QSTFFCTLQLGSKYFKECLS = low
• WDDFTYGYRLRIYFLIFQRG = low
• TSKRVFSRVESGTQVLGNEG = low
• LNEIERSSD = medium
• VKHTFLRKFWMHRSIESYGH = low
• FRSGRWRNGALSWHALATL = medium

# ---- query substance ----
## Task // return the class label for FHIDTIRTVRLAWYTTEHWQ
## Result high

====

- protocolDetails: amyloid nucleation score (Sup35N fusion, yeast selection) (log enrichment); library NNK3; higher = more nucleation; inactive = no reads after selection
propertyLabel: amyloid nucleation score

// below: answered substances
- RKNLWLVTTGNSARDMLSKM: inactive
- IGVKSYWLRRSYLLFKYWMV: inactive
- TIFECRRASFNVSVEMGR: inactive
- AFKECARRR: inactive
- FCGNLEATYRSRFRSNAHSA: 0.698

Note to self: amyloid nucleation score recorded for VCVVWNIVDQAYNMW was 0.253

So for DNIGSCHDSRAYVS , the logged amyloid nucleation score turned out to be inactive

The substance listed as ENSIVADTGPAV has a reported amyloid nucleation score of inactive

response.value for RFLLHLML (field: amyloid nucleation score) = -0.4

The recorded amyloid nucleation score for entry FSASSISDKIFSMEYCTTWV equals inactive

Reported amyloid nucleation score for WRPFWYIGFHVNVTRG was inactive

get_value(item= LGKRVGCNCICAPRSAGDGI , readout=amyloid nucleation score) returns inactive

# amyloid nucleation score of YGFAVRLCCPSLNVFLTELL = 0.612

Quick note, amyloid nucleation score for YNDGVCIILFNLPFVCRRST landed at 2.85

substance DDGDVNDGRTWFIL , amyloid nucleation score observed: inactive

# amyloid nucleation score (substance: RASLEYVGKCWWDGPYIEGV ) is inactive

Just so you know, measured amyloid nucleation score for RLSGSEKVELM came out at inactive

Value of measured amyloid nucleation score for the entry STPHAHIRSLFMSGYGILTN : inactive

Sample TCHLSKHEISYQLGDTNGHC ; amyloid nucleation score observed: -0.516

// recorded amyloid nucleation score for LTLLHRKRMVLRYCNFMLYL : inactive

Memo: SIGQHWLGS , reported amyloid nucleation score: inactive

According to the records, this substance RCVQCEAYFCLFDKPDVDDT displays amyloid nucleation score of 3.05

Quick note, amyloid nucleation score for DVFRVMDNLLFWKGTLALIQ landed at inactive

Recorded result, VLANGKTSELRELKVHLLAG , amyloid nucleation score: -0.274

The substance LNYVVTHLYLVLFHVMVSDG showed amyloid nucleation score equal to inactive

====

Below, each entry is listed alongside its reported amyloid nucleation score.
- protocolDetails: amyloid nucleation score (Sup35N fusion, yeast selection) (log enrichment); library NNK1; higher = more nucleation; inactive = no reads after selection
Reply: number alone, nothing else.

Here's what some known entries look like.
* VCTCTLVVDSTLCLGSVGTA | 2.04
* RSRIYCGFNRPTCEGFSRLS | 2.63
* SSGFKSAPFSFLRLFLHISR | -1.47

Lab note: measured amyloid nucleation score of IMAGHFRL was 3.69

Per the records, this sequence ( QSVHDTHSCHGSH ) has amyloid nucleation score equal to 0.5

====

- protocolDetails: amyloid nucleation score (Sup35N fusion, yeast selection) (log enrichment); library NNK2; higher = more nucleation; inactive = no reads after selection
Record 1 whenever amyloid nucleation score is at 0.01 or higher; record -1 when lower.

• CVILDWSVVCFMELVINSRS = 1

## Task Item AFPKLRAGSSLLCA with amyloid nucleation score of 0.01 or above?
## Result 1

## Task Reported amyloid nucleation score reaches at least 0.01 for GNFVRLLV ?
## Result -1

## Task Please indicate if the recorded amyloid nucleation score for TDLIPRQKKITLWFIS meets or exceeds 0.01.
## Result 1

## Task Is amyloid nucleation score for GWCSYTP at or above 0.01?
## Result 1

## Task hey, is amyloid nucleation score for this one >= 0.01? NVMKSLFGRC
## Result 1

====

- protocolDetails: amyloid nucleation score (Sup35N fusion, yeast selection) (log enrichment); library NNK3; higher = more nucleation; inactive = no reads after selection
propertyLabel: amyloid nucleation score

* ETDCRSAQSIC | inactive
* SVTFANTSRHYPLADLSTPT | 0.162
* HGERSDKMLDSGSPYMAPSG | inactive
* SPLLNPGPSWF | inactive
* RRRLIR | inactive
* YDMFMVSWLKEIDWMQDDPR | inactive

response.value for EIYCFRCVVIGIYYLVTIID (field: amyloid nucleation score) = inactive

amyloid nucleation score measured on RGLQELLWI = -0.999

Note to self: amyloid nucleation score recorded for LDRSVIIVSLILS was 1.87

Just so you know, measured amyloid nucleation score for STSICIGLLYAFVFEARVLC came out at inactive

====

- protocolDetails: amyloid nucleation score (Sup35N fusion, yeast selection) (log enrichment); library NNK3; higher = more nucleation; inactive = no reads after selection
propertyLabel: amyloid nucleation score

In the examples that follow, each entry is paired with its recorded amyloid nucleation score.
* MTVSVITAMGFTIGFFADNQ | 0.494
* ICNIYCCCQG | 2.6
* CRHTLSRHDVTRCNSEVSSL | inactive
* WYMGFSAVLVCFRLSRPVT | inactive

The value of amyloid nucleation score measured for the substance TKTHCFLLLSGVCVGRVLGW turned out to be inactive

Value of measured amyloid nucleation score for the entry CTSGLVVGLVFLMI : -0.716

Looking up SWGIEDSVSYEMETDVVSNW , I found its amyloid nucleation score recorded as inactive

Value of measured amyloid nucleation score for the entry RRALYKLSSKESWPVDCNSV : inactive

response.value for TSNALYLLLLRHLYNMLLHV (field: amyloid nucleation score) = inactive

Form field amyloid nucleation score, entry INTNAYSGLEIYRYSTIAKG : inactive

substance VERHFAVDERP , amyloid nucleation score observed: -0.682
